Some molecules, each annotated with its measured IC50.
study_system: full length NS3 protein noncovalently complexed with the full-length NS4A cofactor protein (NS3/NS4A complex) (Hepatitis C virus genotype 1b, UniProt P26663)
Construct: full length NS3 protein spanning residues 1027–1657 of the HCV polyprotein
Sequence (P26663 1027-1657): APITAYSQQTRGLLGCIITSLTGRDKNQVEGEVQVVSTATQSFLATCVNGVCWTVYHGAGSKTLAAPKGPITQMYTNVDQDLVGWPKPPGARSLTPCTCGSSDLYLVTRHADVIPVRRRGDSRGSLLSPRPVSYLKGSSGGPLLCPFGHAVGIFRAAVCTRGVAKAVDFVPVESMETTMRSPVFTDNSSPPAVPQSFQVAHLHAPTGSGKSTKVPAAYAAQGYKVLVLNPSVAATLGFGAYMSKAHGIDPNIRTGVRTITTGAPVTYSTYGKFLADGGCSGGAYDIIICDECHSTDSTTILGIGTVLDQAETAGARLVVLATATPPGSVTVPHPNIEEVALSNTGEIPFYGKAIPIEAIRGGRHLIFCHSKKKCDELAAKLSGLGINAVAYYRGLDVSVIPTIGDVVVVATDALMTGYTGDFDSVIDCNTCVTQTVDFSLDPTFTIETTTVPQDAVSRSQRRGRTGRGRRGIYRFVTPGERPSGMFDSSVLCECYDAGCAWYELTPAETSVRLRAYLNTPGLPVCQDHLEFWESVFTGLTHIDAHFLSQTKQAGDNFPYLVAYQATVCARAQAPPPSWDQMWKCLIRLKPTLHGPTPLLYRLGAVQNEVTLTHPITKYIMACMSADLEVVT
Sequence (P26663 1658-1711): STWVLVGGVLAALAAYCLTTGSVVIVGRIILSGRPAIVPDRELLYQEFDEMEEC
experiment_notes: Full-length NS3-NS4A heterodimer protein assay (Assay A)
Type: biochemical, hepatitis C virus (HCV)
outcome_measure: IC50

>>> result("CC(C)C[C@H](NC(=O)[C@H](CCC(=O)O)NS(=O)(=O)c1cccc2ccccc12)C(=O)N[C@@H](CS)C(=O)NCCc1ccccc1Cl")
"< 10 µM"
>>> result("COc1ccc(Br)cc1CCNC(=O)C(CS)NC(=O)C(CC(C)C)NC(=O)C(CCC(=O)O)NC(=O)OCC(C)C (stereo not drawn)")
"< 100 µM"
>>> result("CC(C)COC(=O)NC(CCC(=O)O)C(=O)NC(CC(C)C)C(=O)NC(CS)C(=O)NCCc1cccc(C(=O)O)c1 (stereo not drawn)")
"< 100 µM"
